# reactivity (MFI of chimeric receptor/MFI of wild type CXCR4 x 100%) per entry
Measured On: 4442 CXCR2/CXCR4 chimera
Test Details: flow cytometry, scFv-Fc on transfected 293T cells, FITC anti-human IgG
Dear colleague, please return just the value in %, with no unit written.

2N-Fc (Fc fusion, part only; not given: linker and human IgG1 hinge-Fc, not shown: another chain or arm of the molecule; a dimerising Fc or GST; small tags and cut ends) VH: EVQLVESGGGVVQPGRSLRLSCAASGFTFSSYGMHWVRQAPGKGLEWVAVISYDGSNKYYADSVKGRFTISRDNSKNTLYLQVSSLRAEDTAVYYCVRDLVAAAGTAFDIWGQGTTVTVSS VL: QPVLTQPRSVSGSPGQSVTISCTGTISDVGGHNFVSWYQQNPGKAPKLIIFEVTKRPAGVPDRFSGSKSGNTASLTVSGLQAEDEGEYYCSSYGGSNDVIFGGGTKLSVL; 61
20-Fc (Fc fusion, part only; not given: linker and human IgG1 hinge-Fc, not shown: another chain or arm of the molecule; a dimerising Fc or GST; small tags and cut ends) VH: EVQLVQSGGGLVQPGGSLRLSCAASGFTFSSYAMSWVRQAPGKGLEWVANIKQDGSEKYYVDSVKGRFTISRDNAKNSLYLQMNSLRAEDTAVYYCARDQVSGITIFGGKWRSPDVWGQGTTVTVSS VL: SSELTQDPAVSVALGQTVRITCQGDSLRSYYASWYQQKPGQAPVLVIYGKNNRPSGIPDRFSGSKSHNTAYLTITGAQAEDEADYFCNSRSGSQRVFGGGTKLTVL; 27.9
33-Fc (Fc fusion, part only; not given: linker and human IgG1 hinge-Fc, not shown: another chain or arm of the molecule; a dimerising Fc or GST; small tags and cut ends) VH: QVTLKESGGGVVQPGRSLRLSCAASGFTFTNYGLHWVRQAPGKGLEWVAVISHDGTKKYYADSVKGRFTISRDSSENTLYLQMNSLRPEDSALYYCARDGGYCSGGRCYSYGMDVWGQGTTVTVSS VL: QSVLTQPPSASGTPGQRVTISCSGSRSNIGSNTVNWYQQLPGTAPKLLIYTNNQRPSGVPDRFSGSKSGTSASLAITGLQAEDEADYYCLSFDSSLTSYVFGTGTKVTVL; 15.5

Name the reported reactivity (MFI of chimeric receptor/MFI of wild type CXCR4 x 100%) value associated with the binder 6R-Fc (Fc fusion, part only; not given: VH-VL linker, hinge and IgG1 Fc, not shown: another chain or arm of the molecule; a dimerising Fc or GST; small tags and cut ends) VH: QVQLQQSGPGLVKPSQTLSLTCAVSGDSVSSNFVAWNWIRQSPSRGLEWLGRTYYRSRWYNDYAVSVQSRIRVTPDTSKNQFSLHLDSVTPEDTAVYYCARGQHSGFDFWGQGTLVTVSS VL: QSVLTQPPSVSKGLRQTATLTCTGNSNNVGNQGAAWLQQHQGHPPKLLSYRNNNRPSGISERFSASRSGNTASLTITGLQPEDEADYYCSAWDNRLKTYVFGTGGKVTVL 1.4
